The reported numbers originate from PubChem BioAssay.

Procedure Summary: inhibition of 3D7 malaria parasite growth – strain 3D7 (AID 2306);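 also: 0% = DMSO wells and 100% = chloroquine plus artemisinin control wells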
Protocol Conditions: P. falciparum 3D7 erythrocytic growth, LDH absorbance, 72 h; at 2 µM; hits give high values
Endpoint Label: growth inhibition (%)
Numbers only; they are read as %.

Take a look at these entries with their results.
1. COc1cccc(-c2cc(C(=O)Nc3ccc4nc(-c5ccccc5)[nH]c4c3)[nH]n2)c1: 100
2. COc1ccc(CC(C)CON2C(N)=NC(N)=NC2(C)C)cc1 (stereo not drawn): 94

// field: growth inhibition; key: COc1ccccc1N1CCN(C(C(=O)NCc2cccc(F)c2)c2ccc(C)cc2)CC1 (stereo not drawn) ; value = 94

* * *

Tested Target: L-lactate dehydrogenase (Plasmodium falciparum (isolate CDC / Honduras))
Procedure Summary: PfLDH activity inhibition – cell lysate, 3D7 strain, counter-screen for P. falciparum growth inhibition project (AID 2304);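 also: 0% = vehicle and 100% = reference inhibitor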
Protocol Conditions: P. falciparum 3D7 crude extract, LDH APAD/NBT absorbance; at 2 µM; hits give high values
Calls of active or inactive are those of the source. No rule for the calls is given here.
Endpoint Label: inhibition

Take a look at these entries with their results.
1. CCCc1ccc(S(=O)(=O)NC2CCN(c3ccnc(Nc4ccc(F)cc4)n3)C2)cc1 (stereo not drawn): -6% (inactive)
2. COc1cccc(NC(=O)NC2CCN(c3ccnc(Nc4ccc(F)cc4)n3)C2)c1 (stereo not drawn): -2% (inactive)
3. CCOc1ccc(NC(=O)c2cn3nc(-c4ccc(OCC)cc4)cc3nc2C2CCNCC2)cc1: -11% (inactive)
4. N#Cc1cccc(NC(=O)NC2CCN(CCCCCNC(=O)/C=C/c3ccc(Cl)c(Cl)c3)CC2)c1: 0% (inactive)
5. O=C(NCCCCN1CCC(c2cccc3ccccc23)CC1)c1ccc(-c2ccc(C(F)(F)F)cn2)cc1: 0% (inactive)
6. CCN(CC)CCN(Cc1ccc(-c2ccc(C(F)(F)F)cc2)cc1)C(=O)Cn1c(CCc2cccc(F)c2F)nc(=O)c2cccnc21: 2% (inactive)
7. Cc1nc(-c2cccc3c(NC(=O)Nc4ccc5nccc(N6CCN(C)CC6)c5c4)cccc23)no1: -2% (inactive)
8. CCOc1c(Cl)cc(Cl)cc1CNCCCNc1nc2ccccc2[nH]1: -7% (inactive)
9. Cc1ccc(NC(=O)c2ccc(-c3cc4cc(Cl)c(Cl)cc4[nH]3)cc2)cc1OCCN1CCCC1: -6% (inactive)
10. COc1ccc(-c2csc(C(=O)NC3CCC(N4CCC(c5ccccc5C)CC4)CC3)c2)cc1 (stereo not drawn): -1% (inactive)

// field: inhibition; key: "O=c1[nH]c(=O)n2c(nc3ccccc32)[nH]1" ; value = 6% (inactive)

// field: inhibition; key: "N#Cc1cccc(NC(=O)Nc2cccc(-c3cccc(-c4nc5ccc(C(F)(F)F)cc5[nH]4)c3)c2)c1" ; value = 5% (inactive)

// field: inhibition; key: "COc1ccc(CN(C)CCCOc2ccc(NC(=O)c3cccc4c(=O)c5cccc(F)c5[nH]c34)cc2)cc1OC" ; value = -3% (inactive)

// field: inhibition; key: "O=C(/C=C/c1ccc(Cl)c(Cl)c1)NCCCCCN1CCC(c2cn[nH]c2-c2ccccc2)CC1" ; value = -2% (inactive)

// field: inhibition; key: "CCOC(=O)C1=C(C)NC(C)=C(C(=O)OCC)C1(C(=O)OCc1ccccc1)c1cccc(C(F)(F)F)c1" ; value = 5% (inactive)

// field: inhibition; key: "COc1cc(CNC[C@@H](O)[C@H](Cc2ccccc2)NC(=O)c2cc(OC(C)C)cc(N3CCCCS3(=O)=O)c2)cc(OC)c1" ; value = 4% (inactive)

// field: inhibition; key: COc1ccc(Nc2nccc(N3CCC(NC(=O)c4cccc(C#N)c4)C3)n2)cc1 (stereo not drawn) ; value = -3% (inactive)

// field: inhibition; key: "Cc1ccnc2nc(C(=O)Nc3cc(C(F)(F)F)ccc3N3CCCCC3)nn12" ; value = -5% (inactive)
